- System under test: human V2 receptor (Homo sapiens, UniProt P30518)
- Sequence (P30518 whole entry): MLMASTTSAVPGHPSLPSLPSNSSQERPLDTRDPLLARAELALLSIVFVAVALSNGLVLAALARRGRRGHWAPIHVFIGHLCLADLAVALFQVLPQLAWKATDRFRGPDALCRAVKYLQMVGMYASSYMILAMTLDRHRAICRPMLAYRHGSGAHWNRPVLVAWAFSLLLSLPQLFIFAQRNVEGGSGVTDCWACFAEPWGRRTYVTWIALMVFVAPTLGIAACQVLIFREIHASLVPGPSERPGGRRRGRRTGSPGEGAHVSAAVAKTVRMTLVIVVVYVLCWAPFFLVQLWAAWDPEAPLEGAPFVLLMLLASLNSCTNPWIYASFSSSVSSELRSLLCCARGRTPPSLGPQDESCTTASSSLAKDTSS
- Procedure summary: In-vitro receptor binding assay (3H-arginine-8-vasopressin), V2
- Recorded conditions: @ 1 μM; read-out: Receptor Binding V2 (% Inh. @ concentration in μM)
Reported endpoint: inhibition at 1 µM (%)
Give bare numbers, in %.

O=C(c1ccc(OCC2CC2)cc1)N1CCC2(C=CCCC2)Cc2ccccc21 (stereo not drawn) [Compound 181] = 31
O=C(c1ccc(OC2CCCC2)cc1)N1CCC2(C=CCCC2)Cc2ccccc21 (stereo not drawn) [Compound 180] = 20

Give the observed inhibition at 1 µM of O=C(c1ccc(O)cc1)N1CCC2(C=CCCC2)Cc2ccccc21 (stereo not drawn) [Compound 78] for human V2 receptor (Homo sapiens, UniProt P30518).
3

* * *

- System under test: human V2 receptor (Homo sapiens)
- Procedure summary: In-vitro receptor binding assay (3H-arginine-8-vasopressin), V2
Reported endpoint: log10 of IC50 (log10 of the value in µM)
Recorded IC50 (log10, µM)

Sample answers from the record:
Cc1ccc(-c2ccccc2C(=O)Nc2ccc(C(=O)N3CCC4(C=CCCC4)Cc4ccccc43)c(Cl)c2)cc1 (stereo not shown) [Compound 117] = -1.00
COc1cc(NC(=O)c2cc(F)ccc2C)ccc1C(=O)N1CCC2(C=C(C=O)CC2)Cc2ccccc21 (stereo not shown) [Compound 170] = -0.68
Cc1ccc(-c2ccccc2C(=O)Nc2ccc(C(=O)N3CCC4(C=CCCC4)Cc4ccccc43)cc2)cc1 (stereo not shown) [Compound 114] = -1.02
CN(C)CCNC(=O)C1=C[C@]2(CC1)CCN(C(=O)c1ccc(NC(=O)c3ccccc3-c3ccccc3)cc1)c1ccccc1C2 [Compound 20] = -1.80
O=C(Nc1ccc(C(=O)N2CCC3(C=CCCC3)Cc3ccccc32)cc1)c1ccc(Cl)cc1Cl (stereo not shown) [Compound 103] = -0.56

Items follow; give log10 of IC50 for each.
1. O=C(Nc1ccc(C(=O)N2CCC3(CCCCC3O)Cc3ccccc32)cc1)c1ccccc1-c1ccccc1 (stereo not shown) [Compound 32]
2. COc1cc(C(=O)N2CCC3(C=CCCC3)Cc3ccccc32)ccc1NC(=O)c1cc(F)ccc1C (stereo not shown) [Compound 182]
3. Cc1ccc(F)cc1C(=O)Nc1ccc(C(=O)N2CCC3(C=C(C(=O)NCCN(C)C)CC3)Cc3ccccc32)cc1 (stereo not shown) [Compound 13]
4. O=C(Nc1ccc(C(=O)N2CCC3(C=CCCC3)Cc3ccccc32)cc1)c1ccccc1 (stereo not shown) [Compound 67]
5. COc1cc(NC(=O)c2cc(F)ccc2C)ccc1C(=O)N1CCC2(C=CCCC2)Cc2ccccc21 (stereo not shown) [Compound 116]

[-1.55, -0.64, -1.74, -0.41, -1.04]

Items follow; give log10 of IC50 for each.
1. Cc1ccccc1C(=O)Nc1ccc(C(=O)N2CCC3(C=CCCC3)Cc3ccccc32)c(Cl)c1 (stereo not shown) [Compound 112]
2. CC(=O)N(C)CC1=CC2(CC1)CCN(C(=O)c1ccc(NC(=O)c3ccccc3-c3ccccc3)cc1)c1ccccc1C2 (stereo not shown) [Compound 5]
3. O=C(NCCN1CCCC1)C1=CC2(CC1)CCN(C(=O)c1ccc(NC(=O)c3ccccc3-c3ccccc3)cc1)c1ccccc1C2 (stereo not shown) [Compound 135]
4. O=C(O)CNC(=O)C1=CC2(CC1)CCN(C(=O)c1ccc(NC(=O)c3ccccc3-c3ccccc3)cc1)c1ccccc1C2 (stereo not shown) [Compound 10]
5. CCNc1ccc(C(=O)N2CCC3(CCCCC3)Cc3ccccc32)cc1 [Compound 26]

1. -1.10
2. -1.66
3. -1.62
4. -1.74
5. 1.00

* * *

- System under test: V1a (Homo sapiens)
- Sequence (P37288 whole entry): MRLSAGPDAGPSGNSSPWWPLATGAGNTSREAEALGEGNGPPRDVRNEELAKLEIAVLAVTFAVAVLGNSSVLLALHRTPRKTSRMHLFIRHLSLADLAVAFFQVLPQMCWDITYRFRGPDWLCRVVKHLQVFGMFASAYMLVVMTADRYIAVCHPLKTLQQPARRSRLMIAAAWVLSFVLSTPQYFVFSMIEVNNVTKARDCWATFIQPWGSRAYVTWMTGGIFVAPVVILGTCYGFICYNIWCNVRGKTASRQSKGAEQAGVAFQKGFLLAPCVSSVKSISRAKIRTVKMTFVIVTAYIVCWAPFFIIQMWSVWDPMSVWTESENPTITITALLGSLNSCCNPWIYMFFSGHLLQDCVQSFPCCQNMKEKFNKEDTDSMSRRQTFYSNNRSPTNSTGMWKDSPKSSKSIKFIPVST
- Procedure summary: In-vitro receptor binding assay (3H-arginine-8-vasopressin), V1a
- Method: (A) In-Vitro Binding Assay […] The reaction plates are allowed to sit at room temperature for one hour. The samples are filtered through Unifilter GF/C plates (presoaked in 0.3 polyethyleneimine). The plates are washed 5 times with cold physiological saline containing 0.05% Tween 20. […] The top of the plate is sealed, and the plate is counted. Non-specific binding is determined by the addition of 1.25 μM […]-vasopressin in those wells. % Inh. is calculated as follows: […]
Provide the recorded IC50 for the entries that follow.
One number for each entry, in µM.

CN(C)CCNC(=O)C1=CC2(CC1)CCN(C(=O)c1ccc(N)cc1)c1ccccc1C2 (centres unmarked) [Compound 191] = 1.2
CC(=O)c1ccn(-c2ccc(C(=O)N3CCC4(C=CCCC4)Cc4ccccc43)cc2F)c1 (centres unmarked) = 0.044
O=C(O)C1=CC2(CC1)CCN(C(=O)c1ccc(NC(=O)c3ccccc3-c3ccccc3)cc1)c1ccccc1C2 (centres unmarked) = 0.037
COc1ccc(C(=O)N2CCC3(C=CCCC3)Cc3ccccc32)c(OC)c1 (centres unmarked) = 0.19
CN(C)CCNC(=O)C1=CC2(CC1)CCN(C(=O)c1ccc(NC(=O)c3ccccc3-c3ccccc3)cc1)c1ccccc1C2 (single isomer, unassigned) [Compound 21] = 0.181

Items follow; give IC50 for each.
1. CC(=O)N(C)CC1=CC2(CC1)CCN(C(=O)c1ccc(NC(=O)c3ccccc3-c3ccccc3)cc1)c1ccccc1C2 (centres unmarked)
2. CCCCCCCOc1ccc(C(=O)N2CCC3(C=CCCC3)Cc3ccccc32)cc1 (centres unmarked)
3. Cc1ccc(F)cc1C(=O)Nc1ccc(C(=O)N2CCC3(C=C(C(=O)NCCN4CCCC4)CC3)Cc3ccccc32)cc1 (centres unmarked)
4. CSc1ccc(C(=O)N2CCC3(C=CCCC3)Cc3ccccc32)cc1 (centres unmarked)

1: 0.02; 2: 1; 3: 0.01; 4: 0.066

Items follow; give IC50 for each.
1. CC(C)Nc1ccc(C(=O)N2CCC3(C=CCCC3)Cc3ccccc32)cc1 (centres unmarked)
2. COc1cc(C(=O)N2CCC3(C=C(C(=O)NCCN(C)C)CC3)Cc3ccccc32)ccc1-n1ccc(CO)c1 (centres unmarked)
3. Cc1ccn(-c2ccc(C(=O)N3CCC4(C=C(C(=O)NCCN(C)C)CC4)Cc4ccccc43)cc2)n1 (centres unmarked)

1. 0.19
2. 0.008
3. 0.055

Items follow; give IC50 for each.
1. O=C(c1ccc(I)cc1)N1CCC2(C=CCCC2)Cc2ccccc21 (centres unmarked)
2. O=CC1=CC2(CC1)CCN(C(=O)c1ccc(NC(=O)c3ccccc3-c3ccccc3)cc1)c1ccccc1C2 (centres unmarked)
3. O=C(Nc1ccc(C(=O)N2CCC3(CCCCC3=O)Cc3ccccc32)cc1)c1ccccc1-c1ccccc1 (centres unmarked) [Compound 31]
4. Cc1ccc(F)cc1C(=O)Nc1ccc(C(=O)N2CCC3(C=C(C(=O)NCCN4CCCCC4)CC3)Cc3ccccc32)cc1 (centres unmarked)
5. CC(C)COc1ccc(C(=O)N2CCC3(C=CCCC3)Cc3ccccc32)cc1 (centres unmarked)
6. O=C(c1ccc(OCc2ccccc2)cc1)N1CCC2(C=CCCC2)Cc2ccccc21 (centres unmarked)
7. O=C(Nc1ccc(C(=O)N2CCC3(C=CCCC3)Cc3ccccc32)cc1)c1ccccc1F (single isomer, unassigned) [Compound 108]

0.57
0.016
0.021
0.011
0.065
0.086
0.024

Give me measured IC50, please, for this compound: Cc1ccc(C(=O)Nc2ccc(C(=O)N3CCC4(C=CCCC4)Cc4ccccc43)cc2)cc1C (centres unmarked)
0.14
